- Tested on: FXR:RXRa (NR concentration 270 nM, RXRa partner concentration 90 nM)
- Run Description: PBM binding z-score (relative to random genomic background probes); higher = stronger binding; sequences stand for … in GC…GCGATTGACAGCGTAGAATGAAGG
label 1 means recorded PBM binding z-score is 3 or above; label 0 means it is below 3.

Observe how each entry below is paired with its result.
1. TCTATTAGCTGAAGGGCAACCGACGAGTCCGTTT :: label 0
2. ATCTCCAGGTAAAGTTCAGTGAAAGATCGATAGA :: label 0
3. CCTCGGAGGATAACAGGAGGTCAGAGCTGCCAGA :: label 0
4. CATTACGGGTCACTGACAGGTTATAGCATTTGGA :: label 1

Inquiry: Could you verify whether the entry CTCGAAAGGTCGGTTGAGGTGAGTATCCGGATAA shows PBM binding z-score of no less than 3?
Reply text: label 0

Inquiry: Could you verify whether the entry ATCGAAAGGTTGAGGTGAGTATAGAGAAAGGGAA shows PBM binding z-score of no less than 3?
Reply text: label 0

Inquiry: Could you verify whether the entry AGAATGAGGTTAAGATCAGAGAAACAGAATACAT shows PBM binding z-score of no less than 3?
Reply text: label 0

Inquiry: Could you verify whether the entry AGTCAAAGTTCAGGACGCGGTAACGTAAAGCACG shows PBM binding z-score of no less than 3?
Reply text: label 1

Inquiry: Could you verify whether the entry GGAACGAGGGTAAGTTGATAGCAGAGTTTGATGG shows PBM binding z-score of no less than 3?
Reply text: label 0

Inquiry: Could you verify whether the entry CCTTACGGGTCACCAGGTTATAGCACGACGAGCG shows PBM binding z-score of no less than 3?
Reply text: label 1

Inquiry: Could you verify whether the entry CAAACTAGGTCACGAAAGGTAAAAGTCGAATGAC shows PBM binding z-score of no less than 3?
Reply text: label 1

Inquiry: Could you verify whether the entry CAAACTAGGTCACCGGCAGGTCAAAGTCCGCATG shows PBM binding z-score of no less than 3?
Reply text: label 1

Inquiry: Could you verify whether the entry CCTAGGAGGACAGAAGGTCAGAGCTGTCCGCTTT shows PBM binding z-score of no less than 3?
Reply text: label 0

Inquiry: Could you verify whether the entry CGTCCAATGTCATAGGAGGTCAGTGAAGACAGAT shows PBM binding z-score of no less than 3?
Reply text: label 1

Inquiry: Could you verify whether the entry TATTGTAGATCAAGCAGGTTAAGAAAGCCTGAGT shows PBM binding z-score of no less than 3?
Reply text: label 0

Inquiry: Could you verify whether the entry AGACTGAGGTTATTAAGATCAGGGAATTGCGGTC shows PBM binding z-score of no less than 3?
Reply text: label 0

Inquiry: Could you verify whether the entry TTACCAAGGTGAGCTGAGGTCGATGATCCAACTC shows PBM binding z-score of no less than 3?
Reply text: label 0

Inquiry: Could you verify whether the entry GCTGCTAGGTCAACTGATGGGCAGCTAAAGCTCG shows PBM binding z-score of no less than 3?
Reply text: label 1

Inquiry: Could you verify whether the entry AGTCAAAGTTCTCTAGGTAACGTAAGATTCAGCT shows PBM binding z-score of no less than 3?
Reply text: label 0

* * *

- System: PPARg:RXRa 270nM:90nM, anti-RXR (NR concentration 270 nM, RXRa partner concentration 90 nM)
- Run Description: PBM binding z-score (relative to random genomic background probes); higher = stronger binding; sequences stand for … in GC…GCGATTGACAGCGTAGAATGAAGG
Consider the following sequences and their measured PBM binding z-score readings.

Worked set:
1. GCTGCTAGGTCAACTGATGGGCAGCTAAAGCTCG :: 3.09
2. CCTTACGGGTCAAGGTTACAGCACGGGTGGTACG :: 5.27
3. ATATGTAGGTTAGCTGGGGTCTTTCAGACTAGGC :: 2.65
4. TCGCCTAGGTCAGATCGGGCCAGTATACGCTATA :: 1.19
5. GGAACGAGGGCAAAGTTGATGGCATCTGTCGACG :: 6.89

// moving on: another record for PBM binding z-score
Inquiry: Give reported PBM binding z-score value for TCTATTAGTTGATTGGGGCAACCGAAACAGCGGA
Reply text: 1.91
